Molecular target: T1, MDMX (In-house, 40 kD) (UniProt O15151)
T1 sequence (looked up): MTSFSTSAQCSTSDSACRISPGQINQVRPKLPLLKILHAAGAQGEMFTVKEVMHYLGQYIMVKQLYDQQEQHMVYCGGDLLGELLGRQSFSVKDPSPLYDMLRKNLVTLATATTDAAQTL
Experiment: competitive fluorescence polarization on MDMX against FAM-labeled linear peptide; grade, scale in paragraph 462
Bridges are numbered along the chain shown (N, C = ends). [ ]: non-standard residue; d: D form. pY = N[C@@H](Cc1ccc(OP(=O)(O)O)cc1)C(=O)O; R8 = C=CCCCCCC[C@@](C)(N)C(=O)O; S5 = C=CCCC[C@](C)(N)C(=O)O
observed property: Ki

Q: Return reported Ki; argument: Ac-LTF[R8]E[pY]WAQL[S5]AAAAA[dA]-NH2 (staple 4-11) [SP615, Ac-LTF$r8EpYWAQL$AAAAAa-NH2]
Ans: < 10 nM
